System: NCI-H226
assay_remarks: Growth inhibition of human NCI-H226 cells assessed as cell growth at 10 uM incubated for 48 hrs by sulforhodamine B assay relative to control
Type: functional
condition: NCI-H226, 48 h, read-out: Activity
measured_property: growth at 10 µM

Solved cases (2 shown):
In [3]: df
Out[3]:
                               smiles_input  measured_property  result
0  CC(C)[C@@]12C[C@@H](NC(=O)CO)[C@@](C)(O1)[C@@H]1CC[C@@H](C)[C@H]1[C@@H]2OC(=O)/C=C/c1ccccc1    growth at 10 µM   90.8%
1  CC(C)[C@@]12C[C@@H](NC(=O)CO)[C@@](C)(O1)[C@@H]1CC[C@@H](C)[C@H]1[C@@H]2OC(=O)c1ccc2ccccc2c1    growth at 10 µM   90.2%

[ask] Identify growth at 10 µM associated with the compound C/C(=C\C(=O)O[C@H]1[C@@H]2[C@H](C)CC[C@H]2[C@]2(C)O[C@@]1(C(C)C)C[C@H]2NC(=O)CO)c1ccccc1
[reply] 90.7%
